experiment: optical density shifts of acrAB sulA E. coli – strain DRC41, OD650, 48 h, E. coli filamentation inducer project, primary screen (AID 1152); conditions: higher = more signal, called active from +8 up or from −8 down;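 note: E. coli MC1000 strain DRC41 lacking acrAB efflux pump and sulA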
# z-score binned as one: < -0.6; two: ≥ -0.6 and < 1; three: ≥ 1

>  <compound>
O=C1O[C@H](c2ccccc2)[C@H](c2ccccc2)N2[C@H]1[C@@H](C(=O)NC[C@H](O)c1ccccc1)[C@]1(C(=O)Nc3ccccc31)[C@H]2c1ccccc1OCCO

>  <category-label>
three

$$$$
>  <compound>
O=C(Nc1cc(Br)ccc1C(=O)NCc1cccc(O)c1)c1ccccc1

>  <category-label>
three

$$$$
>  <compound>
CN1C(=O)C2C=CC(C(O)c3cccc4ccccc34)N(NC(=O)OC(C)(C)C)C2C1=O (stereo not given)

>  <category-label>
one

$$$$
>  <compound>
CC(C)NC(=O)[C@@]1(Cc2ccccc2I)c2ccccc2C(=O)N(Cc2ccccc2C(F)(F)F)[C@H]1c1ccc(CO)cc1

>  <category-label>
two

$$$$
>  <compound>
CCN(CC)c1ccc(N2CC=CC34O[C@@H]5/C=C\CCCOC(=O)C5[C@H]3C(=O)N(CCCCCCO)[C@@H]4C2=O)cc1 (stereo not given in full)

>  <category-label>
three

$$$$
>  <compound>
COc1ccc([Si](C)(C)[C@@H]2[C@@H](CC(=O)N(CCO)Cc3ccccc3)O[C@]3(C(=O)N(Cc4ccc(N5CCOC5=O)cc4)c4ccccc43)[C@H]2C)cc1

>  <category-label>
one

$$$$
>  <compound>
COc1cccc(C)c1NC(=O)O[C@H]1[C@H](OC(=O)Nc2ccccc2)[C@H](OC(=O)Nc2ccccc2)[C@@H](OC)O[C@@H]1CO

>  <category-label>
one

$$$$
>  <compound>
C[C@H]1NC(=O)C([C@@H](C)OCc2ccccc2)NC(=O)[C@@]23C(=O)N[C@@H](Cc4ccccc4)C2[C@H](C)[C@@]2(C)O[C@H]2C3/C=C/CC/C=C/CNC1=O (stereo not given in full)

>  <category-label>
three

$$$$
>  <compound>
COC(=O)[C@]1(Cc2ccccc2N=[N+]=[N-])N=C(c2ccc(OCCCO)cc2)O[C@@H]1c1ccccc1

>  <category-label>
two

$$$$
>  <compound>
COCCCNC(=O)[C@]1(Cc2ccccc2CN=[N+]=[N-])N=C(c2ccc(OCCCO)cc2)O[C@@H]1c1ccccc1CN=[N+]=[N-]

>  <category-label>
two

$$$$
>  <compound>
CN1C(=O)C2C=CC(C(O)COCc3ccccc3)N(Nc3ccccc3)C2C1=O (stereo not given)

>  <category-label>
one

$$$$
>  <compound>
C=C(CCCC)/C(=C/C[C@@H](OC(=O)c1ccncc1)c1ccccc1OCCO)c1cc(C(=O)OC)ccc1OC

>  <category-label>
two

$$$$
>  <compound>
COCCOC(=O)N1C(=O)[C@@]2(c3cc(C#Cc4ccc(OC)cc4)ccc31)[C@H](c1ccc(OCCO)cc1)N1[C@H](c3ccccc3)[C@H](c3ccccc3)OC(=O)[C@H]1[C@@H]2C(N)=O

>  <category-label>
two

$$$$
>  <compound>
CC[C@@H]1[C@@H]2C3C(=O)N(CC)C(=O)C3CC(=O)[C@@H]2[C@H](c2ccc(C)cc2)N1S(=O)(=O)c1ccc(C)cc1 (stereo not given in full)

>  <category-label>
three

$$$$
>  <compound>
C=C[C@H](C)[C@H](OC(=O)Nc1ccc(SC)cc1)c1ccc(O)c2ccccc12

>  <category-label>
one

$$$$
